# folding enthalpy per entry
Assay: folding enthalpy; higher = less favourable; fluorescence melt of hairpins on a sequencing array, two-state fit
Settings: sodium 0.088 M
Please give a number only; it is taken to be in kcal/mol.

Problem: # get_value(readout='folding enthalpy', item= GATCTCAATGAGATC ((((((...)))))) )
Result: -35.9

Problem: # get_value(readout='folding enthalpy', item= GCCGTTCGAAAGAAGGGC (((.(((....))).))) )
Result: -44

Problem: # get_value(readout='folding enthalpy', item= GCCGGGCGAAAGCGCCGC ((.(.((....)).).)) )
Result: -11.5

Problem: # get_value(readout='folding enthalpy', item= GGAAGGGGAAACCCTTCC (((((((....))))))) )
Result: -35.1

Problem: # get_value(readout='folding enthalpy', item= GCGGACACCCGC ((((....)))) )
Result: -20.9
